System: MAP3K4
Details: concentration: 1 μM,replicates: in singlicate; n = 1;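 also: KINOMEscan kinase panel screen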
Readout Kind: %Inh

// worked examples, %Inh included
>>> result("OCCn1cc(-c2cnc3nnn(Cc4ccc5ncccc5c4)c3n2)cn1")
"0%"
>>> result("CCN1CCN(CCCC(=O)Nc2n[nH]c3nc(-c4ccc(O)cc4)c(Br)cc23)CC1")
"0%"
>>> result("CC(C)S(=O)(=O)N1CCN(Cc2ccc3c(c2)nc(NC(=O)c2ccsc2)n3C[C@H](O)c2ccccc2)CC1")
"53%"
>>> result("C[C@@H](Oc1cc(-n2cnc3ccc(-c4ccncc4)cc32)sc1C(N)=O)c1ccccc1Cl")
"21%"
>>> result("Cn1ccc2ncnc(Oc3ccc(NC(=O)Nc4cc(C(C)(C)C)on4)c(Cl)c3)c21")
"9%"
>>> result("Cc1cccc(-c2nc(Nc3ccncc3)c3sccc3n2)n1")
"0%"

Your task in this section: give %Inh for each listed record.
1. C[C@@H](Oc1cc(-n2cnc3cc(-c4ccncc4)ccc32)sc1C(N)=O)c1ccccc1Cl
2. CS(=O)(=O)Nc1ccc(-c2ccnc3[nH]ccc23)cc1
3. COc1cccc(CNC(=O)NC2CCN(c3ccnc(Nc4cc(OC)c(OC)c(OC)c4)n3)C2)c1 (stereo not shown)
4. CCCC(=O)Nc1n[nH]c2ncccc12

Result string:
1: 13%; 2: 0%; 3: 0%; 4: 11%

###

Tested on: ABL1-phosphorylated
Details: concentration: 1 μM,replicates: in singlicate; n = 1
Readout Kind: %Inh (%)
Give bare numbers, in %.

// worked examples, %Inh included
>>> recorded_number("CC(=O)Nc1nc2cnc(Nc3cc(NC(=O)c4cccc(CC(C)(C)C#N)c4)ccc3C)nc2s1")
50
>>> recorded_number("Cl.Nc1n[nH]c2cc(-c3ccccn3)ccc12 [GSK2189892]")
0

Your task in this section: give %Inh for each listed record.
1. Cc1ccc(CC(=O)N2CCc3cc(-c4cn(C)c5ncnc(N)c45)ccc32)cc1 [GSK2634758]
2. COC(=O)c1cccc(NC(=O)NC2CCN(c3ccnc(NCc4ccc(F)cc4)n3)CC2)c1 [GSK1379860]
3. Cn1ccc2ncnc(Oc3ccc(NC(=O)Nc4cccc(C(F)(F)F)c4)c(F)c3)c21
4. CC(C(=O)NC1CCN(c2ccnc(Nc3ccc(F)cc3)n2)C1)c1ccc(Cl)cc1 (centres unmarked) [GSK1379713]

Result string:
[5, 0, 51, 0]

Your task in this section: give %Inh for each listed record.
1. Cc1nnc(-c2ccc3occ(-c4ccc(S(C)=O)cc4)c3n2)o1 (centres unmarked)
2. COc1cc(Nc2nccc(N3CCC(NC(=O)c4cccc(C#N)c4)C3)n2)cc(OC)c1OC (centres unmarked) [GSK1379751]

Result string:
30
0

###

System: MAST1
Conditions: concentration: 1 μM,replicates: in singlicate; n = 1
Readout Kind: %Inh

// worked examples, %Inh included
>>> result("CS(=O)(=O)c1cccc(CNc2nc(Nc3ccc4c(c3)[C@@H]3C[C@@H]4CNC3=O)ncc2C(F)(F)F)c1")
"0%"
>>> result("Cc1ccc(Nc2ccnc(Nc3ccc4c(c3)CS(=O)(=O)C4)n2)cc1O.Cl [GW579362]")
"0%"
>>> result("Cc1cccc2c(-c3ccncc3)c(-c3ccc(F)cc3)nn12.Cl [GW461487]")
"0%"
>>> result("CN1CCN(CCNc2nc3cc(Oc4ccc(NC(=O)Nc5cc(C(F)(F)F)ccc5F)cc4)ccc3[nH]2)CC1.Cl.Cl [GW768504]")
"7%"
>>> result("COc1cccc(OC)c1C(=O)Nc1cccc(-c2nn3ccccc3c2-c2ccnc(Nc3cccc(F)c3)n2)c1 [GSK361065]")
"9%"
>>> result("Nc1nccc(-c2ccc3c(N)n[nH]c3c2)n1 [GSK1034945]")
"0%"

Your task in this section: give %Inh for each listed record.
1. CN(c1ccc2c(c1)nc(NCc1ccc(F)cc1)n2C)c1ccnc(Nc2ccc(CS(C)(=O)=O)cc2)n1.Cl [GW813244]
2. COc1cc(Nc2nccc(N3CCC(NC(=O)c4cccc(C#N)c4)C3)n2)cc(OC)c1OC (stereo not drawn) [GSK1379751]
3. C[C@@H]1CNc2c(sc3ccc4nc(-c5ccc(O)cc5)ccc4c23)C(=O)N1
4. CCCC(=O)Nc1n[nH]c2ncccc12 [SB-601436]
5. C[C@@H]1CNc2c(sc3ccc4nc(-c5ccncc5)ccc4c23)C(=O)N1

Result string:
1: 19%; 2: 0%; 3: 48%; 4: 0%; 5: 12%

###

Test system: DDR1
Details: concentration: 1 μM,replicates: in singlicate; n = 1
Readout Kind: %Inh

>>> result("O=C(Nc1cccc(Oc2ccc3nccn3n2)c1)Nc1cccc(C(F)(F)F)c1")
"99.3%"
>>> result("CCOC(=O)N1CCC(n2cnc(-c3ccc(F)cc3)c2-c2ccnc(N)n2)CC1")
"83%"
>>> result("COc1cc(Nc2nccc(N3CCC(NC(=O)c4cccc(C#N)c4)C3)n2)cc(OC)c1OC (stereo not shown)")
"0%"
>>> result("COc1cc2c(Nc3ccc(NC(=O)c4ccccc4)cc3)ncnc2cc1OCCCN1CCOCC1")
"0%"
>>> result("C[C@@H]1CCN(C(=O)N2CCCC2)C[C@@H]1N(C)c1ncnc2[nH]ccc12")
"8%"

Your task in this section: give %Inh for each listed record.
1. CN(c1ccc2c(c1)nc(NCc1ccc(F)cc1)n2C)c1ccnc(Nc2ccc(CS(C)(=O)=O)cc2)n1.Cl
2. COc1ccc(Nc2nccc(N3CCC(NC(=O)c4cccc(C#N)c4)C3)n2)cc1 (stereo not shown)

Result string:
98.4%
0%

###

Field: %Inh. Provide a value for each of the compounds that follow.
Test system: MEK5
Construct: gene MAP2K5
Settings: concentration: 1 μM,replicates: in singlicate; n = 1

// worked examples, %Inh included
>>> result("O=C(Nc1n[nH]c2cc(-c3ccco3)ccc12)C1CC1")
"76%"
>>> result("Cc1ccc(CC(=O)N2CCc3cc(-c4cn(C)c5ncnc(N)c45)ccc32)cc1")
"99.9%"
>>> result("Cn1ccc2ncnc(Oc3ccc(NC(=O)Nc4cnn(C(C)(C)C)c4)c(Cl)c3)c21")
"18%"
>>> result("COc1cc(Nc2nccc(N3CCC(NC(=O)c4cccc(C#N)c4)C3)n2)cc(OC)c1OC (centres unmarked)")
"85%"

Please look at the following compound next.
Query string: Please report %Inh for the following compound: O=C(Nc1ccccc1)c1cccc(Oc2ccc3nccn3n2)c1
Result string: 9%

###

Test system: HIPK3
Conditions: concentration: 1 μM,replicates: in singlicate; n = 1
Readout Kind: %Inh
Returns: string containing the number followed by the unit.

>>> result("Nc1nccc(-c2ccc3c(N)n[nH]c3c2)n1")
"34%"
>>> result("CNC(=O)c1ccccc1Nc1nc(Nc2cccc(CS(C)(=O)=O)c2)ncc1C.O=CO")
"92.7%"
>>> result("CC(=O)Nc1nc2cnc(Nc3cc(NC(=O)c4cccc(CC(C)(C)C#N)c4)ccc3C)nc2s1")
"6%"

Query string: Please report %Inh for the following molecule: CCn1c(-c2nonc2N)nc2cncc(CNC3CCNCC3)c21.Cl
Result string: 48%

###

System: PFTAIRE2
Settings: concentration: 1 μM,replicates: in singlicate; n = 1
Entry flag: t if %Inh reaches 4%; f if it does not.

Below are worked cases with known answers.
>>> assigned_class("COc1cccc(OC)c1C(=O)Nc1cccc(-c2nn3ccccc3c2-c2ccnc(Nc3cccc(F)c3)n2)c1")
"f"
>>> assigned_class("COC(=O)Nc1nc2cc(Oc3ccc(NC(=O)Nc4cc(C(F)(F)F)ccc4Cl)cc3)ccc2[nH]1.Cl")
"t"
>>> assigned_class("C[C@@H](Oc1cc(-n2cnc3cc(-c4cnn(C)c4)ccc32)sc1C(N)=O)c1ccccc1Cl")
"t"
>>> assigned_class("C[C@@H]1CCN(C(=O)N2CCCC2)C[C@@H]1N(C)c1ncnc2[nH]ccc12")
"f"
>>> assigned_class("Cn1ccc2ncnc(Oc3ccc(NC(=O)Nc4cc(C(C)(C)C)on4)c(Cl)c3)c21")
"t"
>>> assigned_class("Cc1ccc(CC(=O)N2CCc3cc(-c4cn(C)c5ncnc(N)c45)ccc32)cc1")
"t"
>>> assigned_class("CN1CCN(CCNc2nc3cc(Oc4ccc(NC(=O)Nc5cc(C(F)(F)F)ccc5F)cc4)ccc3[nH]2)CC1.Cl.Cl")
"t"
>>> assigned_class("N#Cc1cccc(C(=O)NC2CCN(c3ccnc(Nc4ccc(F)cc4)n3)C2)c1 (stereo not shown)")
"f"

Query string: Assess whether reported %Inh for O=C1NCCc2[nH]c(-c3ccncc3)cc21 sits at 4% or higher.
Result string: f

Query string: Assess whether reported %Inh for COC(=O)c1cccc(NC(=O)NC2CCN(c3ccnc(Nc4cc(OC)c(OC)c(OC)c4)n3)C2)c1 (stereo not shown) sits at 4% or higher.
Result string: f

Query string: Assess whether reported %Inh for Cl.Cl.NC[C@H](CC1CCCCC1)NC(=O)c1ccc(-c2ccnc3[nH]ccc23)s1 sits at 4% or higher.
Result string: t

Query string: Assess whether reported %Inh for NC(=O)Nc1sc(-c2ccc(F)cc2)cc1C(N)=O sits at 4% or higher.
Result string: t
